# MEASURED ON: WT rat olfactory CNG channel α subunit (Rattus norvegicus)
# ASSAY METHOD TEXT: Excised inside-out patch recording, WT CNG channel
# Type: biochemical
# MEASUREMENT SETUP: read-out: K1/2 (concentration that gives half-maximal current), −50 mV, mean ± SD of three experiments
ENDPOINT NAME: pEC50
Scale note: pEC50 = -log10(concentration in M).

QUERY: State its pEC50: Nc1nc2c(ncn2[C@@H]2O[C@@H]3COP(=O)(O)O[C@H]3[C@H]2O)c(=O)[nH]1
RESULT: 5.89

----------
# MEASURED ON: C460W/E583M rat olfactory CNG channel (Rattus norvegicus, UniProt Q00195, C460W/E583M)
# Sequence (Q00195 1-664 C460W/E583M): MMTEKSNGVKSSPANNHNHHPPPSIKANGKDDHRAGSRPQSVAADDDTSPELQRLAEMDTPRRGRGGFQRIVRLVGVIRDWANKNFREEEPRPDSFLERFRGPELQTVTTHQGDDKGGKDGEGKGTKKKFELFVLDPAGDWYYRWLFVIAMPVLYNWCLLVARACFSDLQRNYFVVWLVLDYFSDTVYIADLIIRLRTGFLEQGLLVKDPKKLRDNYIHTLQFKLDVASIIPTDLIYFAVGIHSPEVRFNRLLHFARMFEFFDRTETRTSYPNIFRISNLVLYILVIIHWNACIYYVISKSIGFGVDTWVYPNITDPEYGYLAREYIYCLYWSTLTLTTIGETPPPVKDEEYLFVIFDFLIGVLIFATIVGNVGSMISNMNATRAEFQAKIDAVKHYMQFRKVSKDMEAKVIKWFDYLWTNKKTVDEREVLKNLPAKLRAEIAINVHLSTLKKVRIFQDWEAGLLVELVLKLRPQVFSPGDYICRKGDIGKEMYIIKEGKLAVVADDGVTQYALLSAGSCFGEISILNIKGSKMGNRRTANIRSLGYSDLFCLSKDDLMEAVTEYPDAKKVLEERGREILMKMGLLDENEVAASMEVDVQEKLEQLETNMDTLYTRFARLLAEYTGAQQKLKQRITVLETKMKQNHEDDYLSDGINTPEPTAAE
# ASSAY METHOD TEXT: Excised inside-out patch recording, C460W/E583M CNG channel
# Assay type: biochemical
# MEASUREMENT SETUP: read-out: K1/2 (concentration that gives half-maximal current), −50 mV, mean ± SD of three experiments
ENDPOINT NAME: EC50 (µM)
# unit: µM | format: bare number

QUERY: Give the observed EC50 of Nc1nc2c(ncn2[C@@H]2O[C@@H]3COP(=O)(O)O[C@H]3[C@H]2O)c(=O)[nH]1 for C460W/E583M rat olfactory CNG channel (Rattus norvegicus, UniProt Q00195, C460W/E583M).
RESULT: 6.2
